Every entry's value here was drawn from PubChem BioAssay (NCATS).

# Assay: qHTS assay for small molecule activators of the p53 signaling pathway (AID 651743); further: series mostly up to about 92 µM; % of control where 0% means no effect
# Experimental context: HCT-116 p53RE-bla, beta-lactamase FRET ratio, 16 h; stronger effect = higher value
Records with an inconclusive call do not appear.

{"columns": ["Smiles notation", "activation [%]"],
 "data": [
  ["CC(C)(Oc1ccc(Cl)cc1)C(=O)O", 0.845],
  ["CN(C)C(=S)SC(=S)N(C)C", -1.54],
  ["Cc1cc(=O)n(-c2ccccc2)n1C", 0.703],
  ["O=C(O)CCCCC(=O)O", -1.12],
  ["Nc1ccc(C(=O)O)cc1", -1.83],
  ["CC(C)(C)CC(C)(C)c1ccc(OCCOCC[N+](C)(C)Cc2ccccc2)cc1", 20.5]
]}
